Reference for the values: patent US20250361230A1

# study.target: LATS2 (Homo sapiens, UniProt Q9NRM7)
# Sequence (Q9NRM7 1-1088): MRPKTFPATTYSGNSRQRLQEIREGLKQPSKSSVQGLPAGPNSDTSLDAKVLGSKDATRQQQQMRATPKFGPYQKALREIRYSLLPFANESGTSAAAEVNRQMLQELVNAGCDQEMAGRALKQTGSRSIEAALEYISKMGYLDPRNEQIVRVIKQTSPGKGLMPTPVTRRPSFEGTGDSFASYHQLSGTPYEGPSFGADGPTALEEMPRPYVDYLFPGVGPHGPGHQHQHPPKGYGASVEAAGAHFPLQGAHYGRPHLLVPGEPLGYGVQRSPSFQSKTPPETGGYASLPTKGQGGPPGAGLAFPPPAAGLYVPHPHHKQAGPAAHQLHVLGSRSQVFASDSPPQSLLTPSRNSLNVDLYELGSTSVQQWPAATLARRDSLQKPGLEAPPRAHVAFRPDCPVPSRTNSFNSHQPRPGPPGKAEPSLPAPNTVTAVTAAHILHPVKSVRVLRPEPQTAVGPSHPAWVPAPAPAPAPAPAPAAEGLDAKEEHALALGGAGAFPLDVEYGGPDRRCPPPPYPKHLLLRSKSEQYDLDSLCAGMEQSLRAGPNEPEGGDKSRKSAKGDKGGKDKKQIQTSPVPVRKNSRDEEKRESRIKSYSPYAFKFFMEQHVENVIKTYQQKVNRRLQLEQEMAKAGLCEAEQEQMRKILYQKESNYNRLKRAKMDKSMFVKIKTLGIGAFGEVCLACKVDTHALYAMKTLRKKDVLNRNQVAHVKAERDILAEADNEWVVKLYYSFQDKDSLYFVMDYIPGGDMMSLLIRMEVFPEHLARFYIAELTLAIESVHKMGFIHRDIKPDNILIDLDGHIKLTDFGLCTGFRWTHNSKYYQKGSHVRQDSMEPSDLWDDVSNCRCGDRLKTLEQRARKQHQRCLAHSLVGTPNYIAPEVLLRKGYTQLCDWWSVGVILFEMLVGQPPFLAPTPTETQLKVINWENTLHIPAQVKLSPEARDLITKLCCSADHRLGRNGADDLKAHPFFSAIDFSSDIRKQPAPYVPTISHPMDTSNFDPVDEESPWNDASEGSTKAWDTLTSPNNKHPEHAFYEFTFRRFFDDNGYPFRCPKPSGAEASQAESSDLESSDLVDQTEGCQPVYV
# procedure.text: RBC HotSpot kinase assay (33P-ATP, P81 filter-binding), LATS2
# Assay type: biochemical
# test.conditions: Table 28, biochemical kinase assay; read-out: LATS2 IC50
measured.parameter: IC50 (nM)

Please look at this compound and report its IC50: CC1CNCCC1(O)c1ccc(-c2ccnc3[nH]cc(F)c23)cc1Cl (stereo not drawn)
6.2

Please report IC50 for the following compound: `Cc1cc(-c2ccnc3[nH]cc(F)c23)ccc1[C@@]1(O)[C@H](C)CN(C2CCS(=O)(=O)CC2)C[C@@H]1C`
12.1

a. NCc1ccc(-c2ccnc3[nH]ccc23)nc1
b. NCc1ccc(-c2ccnc3[nH]ccc23)c(F)c1
c. Cc1cc(-c2ccnc3[nH]cc(F)c23)ncc1CN
d. Clc1c[nH]c2nccc(-c3ccc(C4CCNCC4)cc3)c12
Please list these in order of increasing IC50. Thank you! Could you list the labels in the order requested?
d, c, b, a
(d: 8 nM, c: 15 nM, b: 72 nM, a: 130 nM)

P. C[C@@H]1CN(Cc2ccccn2)C[C@H](C)[C@@]1(O)c1c(F)cc(-c2ccnc3[nH]cc(F)c23)cc1F
Q. OC1(c2ccc(-c3ccnc4[nH]cc(Br)c34)cc2Cl)CNC1
R. CN1C[C@H]2CC[C@@H](C1)C2(O)c1ccc(-c2ccnc3[nH]cc(F)c23)cc1Cl (stereo partly drawn)
List by increasing IC50. Provide the labels, sequenced as the question asks.
Q, P, R
(Q: 7 nM, P: 11.9 nM, R: 118 nM)

---

# study.target: AKT (Homo sapiens, UniProt P31749)
# Sequence (P31749 whole entry): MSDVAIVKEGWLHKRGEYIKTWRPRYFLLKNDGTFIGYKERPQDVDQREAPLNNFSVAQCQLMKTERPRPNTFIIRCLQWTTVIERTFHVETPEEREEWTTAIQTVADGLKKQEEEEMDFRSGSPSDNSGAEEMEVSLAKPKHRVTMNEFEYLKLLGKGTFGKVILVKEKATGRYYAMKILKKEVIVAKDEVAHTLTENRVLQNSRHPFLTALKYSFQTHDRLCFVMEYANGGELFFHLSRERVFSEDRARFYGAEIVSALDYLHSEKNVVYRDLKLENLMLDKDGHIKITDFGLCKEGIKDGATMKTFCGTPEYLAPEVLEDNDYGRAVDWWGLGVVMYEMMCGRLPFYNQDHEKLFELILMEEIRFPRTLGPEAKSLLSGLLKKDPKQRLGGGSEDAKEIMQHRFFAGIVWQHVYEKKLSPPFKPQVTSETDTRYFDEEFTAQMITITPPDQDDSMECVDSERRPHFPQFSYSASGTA
# procedure.text: RBC HotSpot kinase assay (33P-ATP, P81 filter-binding), AKT
# Assay type: biochemical
# test.conditions: Table 28, biochemical kinase assay; read-out: AKT IC50
// values below are reported pIC50
Remember, pIC50 is on a log scale: it is -log10 of the molar concentration.

Some solved entries appear below for comparison.
Give pIC50 only, for `Fc1c[nH]c2nccc(-c3ccc(C4CCNCC4)cc3)c12` , using AKT (Homo sapiens, UniProt P31749) data.
5.93

State the measured pIC50 (AKT (Homo sapiens, UniProt P31749)) of `Fc1ccc(CNCc2ccc(-c3ccnc4[nH]ccc34)cc2)cc1`
5.97

Others:
State pIC50 on AKT (Homo sapiens, UniProt P31749). Entry: `C[C@@H]1CNC[C@H](C)[C@@]1(O)c1ccc(-c2ccnc3[nH]cc(F)c23)cc1Cl`
7.81

---

# study.target: LATS2 (Homo sapiens, UniProt Q9NRM7)
# Sequence (Q9NRM7 1-1088): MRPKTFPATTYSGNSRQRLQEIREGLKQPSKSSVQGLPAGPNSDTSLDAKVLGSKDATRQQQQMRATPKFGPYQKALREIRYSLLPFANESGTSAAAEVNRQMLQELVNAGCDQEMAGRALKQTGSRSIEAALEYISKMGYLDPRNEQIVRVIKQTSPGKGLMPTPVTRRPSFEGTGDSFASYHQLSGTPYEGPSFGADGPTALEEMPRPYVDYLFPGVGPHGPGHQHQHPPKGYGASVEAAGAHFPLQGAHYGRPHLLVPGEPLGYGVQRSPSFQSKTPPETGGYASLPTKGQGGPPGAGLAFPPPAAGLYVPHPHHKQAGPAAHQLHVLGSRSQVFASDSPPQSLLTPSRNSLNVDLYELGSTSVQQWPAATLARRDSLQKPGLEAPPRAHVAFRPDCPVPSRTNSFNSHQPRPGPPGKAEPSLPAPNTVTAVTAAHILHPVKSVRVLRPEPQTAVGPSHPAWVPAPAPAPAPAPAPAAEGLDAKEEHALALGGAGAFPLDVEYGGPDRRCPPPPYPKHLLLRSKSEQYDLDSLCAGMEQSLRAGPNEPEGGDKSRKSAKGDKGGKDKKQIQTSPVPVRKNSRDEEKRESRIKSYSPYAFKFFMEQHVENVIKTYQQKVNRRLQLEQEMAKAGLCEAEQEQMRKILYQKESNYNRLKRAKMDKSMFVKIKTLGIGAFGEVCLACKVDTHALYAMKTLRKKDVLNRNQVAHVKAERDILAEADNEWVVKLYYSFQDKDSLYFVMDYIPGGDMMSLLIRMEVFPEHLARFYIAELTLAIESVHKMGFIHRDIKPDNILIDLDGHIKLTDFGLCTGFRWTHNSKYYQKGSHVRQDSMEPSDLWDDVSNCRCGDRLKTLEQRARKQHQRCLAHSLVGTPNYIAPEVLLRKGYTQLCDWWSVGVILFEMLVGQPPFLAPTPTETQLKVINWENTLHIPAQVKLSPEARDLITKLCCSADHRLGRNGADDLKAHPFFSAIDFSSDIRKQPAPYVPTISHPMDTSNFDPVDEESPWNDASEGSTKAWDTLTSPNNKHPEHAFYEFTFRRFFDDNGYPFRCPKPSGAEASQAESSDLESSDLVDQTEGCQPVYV
# procedure.text: RBC HotSpot kinase assay (33P-ATP, P81 filter-binding), LATS2
# Format: biochemical
# test.conditions: Table 28, biochemical kinase assay; read-out: LATS2 IC50
pIC50: −log10 of the molar value.
measured.parameter: pIC50

Sample records with pIC50:
Identify pIC50 associated with the compound `C[C@@H]1CNC[C@H](C)[C@@]1(O)c1c(F)cc(-c2ccnc3[nH]cc(F)c23)cc1F`
8.14

# return recorded pIC50 for entry `Cc1cc(-c2ccnc3[nH]cc(F)c23)cc(F)c1[C@@]1(O)[C@H](C)CNC[C@@H]1C`
8.00

Given `CCOc1cc(-c2ccnc3[nH]ccc23)ccc1CN` , respond with its pIC50.
7.44

I. Cc1cc(-c2ccnc3[nH]cc(F)c23)cc(F)c1[C@@]1(O)[C@H](C)CN(C2CCNCC2)C[C@@H]1C
II. CC(C)c1cc(-c2ccnc3[nH]ccc23)ccc1CN
From the items above, decide which of I and II has the lower pIC50 reading. Answer by stating the label of the chosen item.
II

I. COCCN1CCC(c2ccc(-c3ccnc4[nH]cc(F)c34)cc2Cl)CC1
II. c1cc(-c2ccc(C3CCCN3)cc2)c2cc[nH]c2n1 (stereo not drawn)
III. Cc1cc(-c2ccnc3[nH]cc(F)c23)ncc1[C@@]1(O)[C@H](C)CN(Cc2ccncc2)C[C@@H]1C
IV. CN1CCC(O)(c2ccc(-c3ccnc4[nH]cc(Br)c34)cc2)CC1
V. CC(=O)N1CCC(c2ccc(-c3ccnc4[nH]cc(F)c34)cc2Cl)CC1
Please list these compounds in decreasing order of pIC50. Please list the labels in the order you were asked to rank them.
IV, II, I, V, III
(IV: 8.43, II: 7.48, I: 7.25, V: 7.00, III: 5.29)

a. Cc1cc(-c2ccnc3[nH]cc(F)c23)cc(C)c1CN
b. Cc1cc(-c2ccnc3[nH]cc(F)c23)cc(F)c1[C@@]1(O)[C@H](C)CN(C(=O)[C@@H]2C[C@H](O)CN2)C[C@@H]1C
Among a and b , whose measured pIC50 is the smaller figure? # answer = label of selected item
a
(a: 7.51, b: 8.60)
